Experiment: small molecules captured by biotinylated probe aFGF10 – biochemical, small-molecule microarray, fluorescence 635/667, stem cell growth factor project, primary screen (AID 1071);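 also: score merges 667 nm spot intensity and signal to noise from triplicate slides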
Details: higher = more signal
# Lookup of reported composite z-score keyed by entry
No unit in the answer, only the number.

Field: example entries. Status: answers known.
INSERT INTO measurements (molecule, quantityname, reportedvalue) VALUES
  ('O=C(C1N=C(c2ccc(OCCCO)cc2)N(c2ccccc2)O1)N1CCCCC1 (stereo not given)', 'composite z-score', 0.938),
  ('CCCCC(CC)C(O)C1C=CC2C(=O)N(c3ccccc3)C(=O)C2N1Nc1ccc(C#N)cc1 (stereo not given)', 'composite z-score', 1),
  ('C=CCNC(=O)[C@@H]1[C@H]2C(=O)O[C@H](c3ccccc3)[C@H](c3ccccc3)N2[C@H](c2ccccc2OCCO)[C@@]12C(=O)Nc1ccc(C#CCCO)cc12', 'composite z-score', 0.0379),
  ('C=C(COC)/C(=C/C[C@H](OC(=O)c1ccncc1)c1ccc(CO)o1)c1cnc2ccccc2c1', 'composite z-score', 0.741);

Turning now to a further molecule:
Exercise: Form field: reported composite z-score of `COc1ccc([Si](C)(C)[C@@H]2[C@@H](CC(=O)N(CCO)Cc3ccccc3)O[C@]3(C(=O)N(Cc4cccc(N5CCCCC5=O)c4)c4ccccc43)[C@H]2C)cc1`
Solution: 0.212

----------
Biological target: Epidermal growth factor receptor (Homo sapiens)
Experiment: compounds binding epidermal growth factor receptor – biochemical, small-molecule microarray, 635 nm fluorescence, primary screen (AID 1104);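 also: score merges 667 nm emission intensity with spot signal to noise over triplicate slides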
Conditions: EGFR binding, higher = more signal
Outcome: 1 for composite z-score of at least 0.1; -1 for anything lower.

Examples with answers:
INSERT INTO measurements (compound, assignedlabel) VALUES
  ('C=CCNC(=O)[C@H]1[C@@H]2C(=O)O[C@@H](c3ccccc3)[C@@H](c3ccccc3)N2[C@@H](c2ccccc2OCCO)[C@]12C(=O)N(C(=O)OCCOC)c1ccc(C#CC3(O)CCCCCC3)cc12', 1),
  ('CCCCC=C[C@@H](NC(=O)OCc1ccccc1Cl)c1ccccc1', 1);

Exercise: Hi, just wondering whether CCC1=C2CN(Cc3ccccc3)[C@@H](C(=O)Cc3ccccc3)C2C=CCC1 (some centres not stated) shows composite z-score of 0.1 or higher.
Solution: -1

Exercise: Hi, just wondering whether `NC(=O)NCC#Cc1ccc2c(c1)[C@]1(C(=O)N2)[C@H](c2ccccc2OCCO)N2[C@H](c3ccccc3)[C@H](c3ccccc3)OC(=O)[C@H]2[C@@H]1C(=O)NC[C@H](O)c1ccccc1` shows composite z-score of 0.1 or higher.
Solution: -1

Exercise: Hi, just wondering whether `CC(C)N1C(=O)C[C@@](C(=O)NC2CC2)(c2ccc([N+](=O)[O-])cc2)[C@H]1c1ccc(CO)cc1` shows composite z-score of 0.1 or higher.
Solution: -1

----------
# Lookup of reported composite z-score keyed by entry
Assay: probe aNOTCH3 binding on compound microarray – biochemical, small-molecule microarray, 635/667 nm fluorescence, primary screen (AID 1120);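 also: probe is a biotin-tagged antibody raised against NOTCH3 rather than NOTCH3 protein; score merges spot fluorescence near 667 nm with spot signal to noise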
Settings: higher = more signal

Field: example entries. Status: answers known.
INSERT INTO assay_data (compound, quantityname, reportedvalue) VALUES
  ('COCCOC(=O)N1C(=O)[C@@]2(c3cc(C#CC4=CCCCC4)ccc31)[C@H](C(=O)Nc1nc3ccccc3s1)[C@H]1C(=O)O[C@H](c3ccccc3)[C@H](c3ccccc3)N1[C@@H]2c1ccc(O)cc1', 'composite z-score', -0.0279),
  ('O[C@@H](Cc1ccccc1)[C@@H](/C=C/C1CC1)N(CC#Cc1ccccc1)Cc1ccccc1Br', 'composite z-score', -0.218),
  ('CC1CC/C=C\[C@H]2OC34C=CCN(c5ccc6ccccc6c5)C(=O)[C@H]3N(CCCO)C(=O)[C@@H]4C2C(=O)O1 (some centres undefined)', 'composite z-score', -0.276),
  ('CC(c1ccccc1)C(O)C1C=CC2C(=O)N(C)C(=O)C2N1Nc1ccccc1 (centres undefined)', 'composite z-score', 0.5),
  ('C=CCC(OC(C)=O)[C@@H]1[C@@H](N(Cc2cccc3ccccc23)C(=O)Cc2ccc(F)cc2)c2cc(OCCCO)ccc2N1C(=O)c1ccc2ccccc2c1 (some centres undefined)', 'composite z-score', -0.0111);

Exercise: Form field: reported composite z-score of `COC(=O)[C@]1(CCS(=O)(=O)c2ccccc2)N=C(c2ccc(OCCCO)cc2)O[C@@H]1c1ccccc1N=[N+]=[N-]`
Solution: 0.359

Exercise: Form field: reported composite z-score of `COC(=O)[C@@]1(Cc2ccc(F)cc2)[C@H]2c3cc(C(=O)N(C)C)n(CCc4ccc(OC)c(Br)c4)c3C[C@H]2CN1C(=O)c1ccccc1`
Solution: 0.613

Exercise: Form field: reported composite z-score of COc1cc(NN2C(C(O)c3ccc(N(C)C)cc3)C=CC3C(=O)N(c4ccccc4)C(=O)C32)cc(OC)c1OC (centres undefined)
Solution: 0.448

Exercise: Form field: reported composite z-score of CN1C(=O)C2C=CC(C(O)c3cccn3C)N(Nc3ccc([N+](=O)[O-])cc3[N+](=O)[O-])C2C1=O (centres undefined)
Solution: 0.0681

Exercise: Form field: reported composite z-score of `[N-]=[N+]=Nc1ccccc1C[C@]1(C(=O)NCCN2CCOCC2)COC(c2ccc(OCCCO)cc2)=N1`
Solution: -0.0745

Exercise: Form field: reported composite z-score of COc1cc(C(O)C2C=CC3C(=O)N(C)C(=O)C3N2Nc2ccccc2)cc(OC)c1OC (centres undefined)
Solution: 0.962

Exercise: Form field: reported composite z-score of `CCOC(=O)C1=CC[C@@H](c2ccccc2F)N(S(=O)(=O)c2ccc(C)cc2)[C@H]1c1ccccc1`
Solution: 0.103

Exercise: Form field: reported composite z-score of `C=CC[C@H](OC(=O)Nc1ccc(SC)cc1)c1ccc(O)c2ccccc12`
Solution: 0.152
